Measured values drawn from patent US20240117061A1 for this set.

Biological target: T1, human BCMA on cells (NCI-H929, U266B1, HEK293 huBCMA) (human, UniProt Q02223 1-184)
T1 construct: whole, on cells; also called cell surface BCMA antigen
T1 sequence (looked up): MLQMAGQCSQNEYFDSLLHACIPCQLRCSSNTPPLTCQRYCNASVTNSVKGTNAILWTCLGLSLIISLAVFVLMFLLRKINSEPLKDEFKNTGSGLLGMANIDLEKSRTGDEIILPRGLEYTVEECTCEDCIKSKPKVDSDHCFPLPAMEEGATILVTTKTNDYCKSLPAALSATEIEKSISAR
Assay: flow cytometry on NCI-H929 cells
attribute measured: pEC50
To interpret pEC50, take it as minus log10 of a concentration measured in moles per litre.

Q: Which pEC50 is listed for humanized antibody hu-mAb3 (VH3+VL3) (antibody, V domains shown, human IgG1/kappa named only as preferred) VH: QVQLVQSGAEVKKPGASVKVSCKASGYTITDYNMDWVRQAPGQGLEWIGNINPHNGGSIYNQKFQGRATLTVDKSTSTAYMELSSLRSEDTAVYYCARGDATLVLDYWGQGTTVTVSS VL: DIQLTQSPSSLSASVGDRATITCRASKSVSTSGLSYMHWYQQKPGKAPKVLIYLASNLESGVPARFSGSGSGTDFTLTISSVQPEDFATYYCQHSRELPPTFGQGTKLELK ?
Ans: 8.09
